measured quantity: melting point

Recorded results for 5 compounds are shown here.
[[record]]
cpd_smiles = "CCCn1nnc2c(C(N)=O)ncn2c1=O"
result = "167 °C"

[[record]]
cpd_smiles = "O=[N+]([O-])c1ccc(F)cc1CCN1CCN(c2nsc3ccccc23)CC1"
result = "131 °C"

[[record]]
cpd_smiles = "COc1ccc(-n2ccc3ccccc32)cc1F"
result = "65 to 67 °C"

[[record]]
cpd_smiles = "CNC(=O)c1cc(F)cc(Cl)c1Oc1cccc(OC)c1C"
result = "127 to 128 °C"

[[record]]
cpd_smiles = "O=c1c(-c2ccccc2)c(Cn2ccnc2)oc2ccccc12"
result = "168 to 171 °C"


Then there is this compound:
// Input: Cc1ccc(-c2c(C(=O)O)oc(=O)c3cnccc23)cc1 . Output its melting point only.
254 to 256 °C

---

measured quantity: melting point

[[record]]
compound = "ON=C1c2ccccc2C2CC2c2ccccc21 (stereo unspecified)"
result = "201 °C"

[[record]]
compound = "Cc1c(C(=O)Nc2ccc(N3CCC(NCCO)CC3)c(C#N)c2)cnn1-c1ccc(Cl)cc1"
result = "181 °C"

[[record]]
compound = "CCCn1cnc2c1c1nnc(-c3ccccc3)n1c(=O)n2CCC"
result = "215 to 217 °C"

[[record]]
compound = "CCCC(Sc1nc2ccccc2[nH]1)C(=O)Nc1c(SC)cc(C)nc1SC (stereo unspecified)"
result = "235 to 237 °C"

[[record]]
compound = "COC(=O)c1ccc2ncn(-c3ccc(OC)cc3)c2c1"
result = "112 to 113 °C"


Turning now to a further record.
// fetch melting point given entry OC(c1ccc2c(c1)SCCN2)(C(F)(F)F)C(F)(F)F
99 to 100 °C

---

measured quantity: melting point

Indicate its recorded melting point; the compound in question is NC(=O)c1ccccc1N1CCN(Cc2cn3cc(Cl)ccc3n2)CC1
178 to 179 °C

Identify measured melting point corresponding to O=C(CCCCC1(C(=O)O)CCC1)CCCCC1(C(=O)O)CCC1
69 to 70 °C

Query melting point for CCCc1nc2c(N)nc3ccccc3c2n1CC(C)(C)C(N)=O
219 to 221 °C

---

Some compounds, each annotated with its measured melting point.

Examples from the recorded data:
[[record]]
compound = "COc1ccc2c(c1OC)CC(c1ccccc1)CC2(O)CN (configuration not stated)"
measured_quantity = "melting point"
result = "175 to 176 °C"

[[record]]
compound = "CON(C(=O)c1cn(C)nc1C(F)F)C(C)c1ccc(I)cc1 (configuration not stated)"
measured_quantity = "melting point"
result = "72 to 74 °C"

[[record]]
compound = "Cc1ccc(Sc2cncc3sc(C(=O)O)cc23)cc1"
measured_quantity = "melting point"
result = "272 to 274 °C"

[[record]]
compound = "Cc1cnc2c(Cl)cnn2c1-c1cccc(C(F)(F)F)c1"
measured_quantity = "melting point"
result = "195 to 197 °C"

[[record]]
compound = "Cc1ncncc1C(=O)Nc1cc(F)c(-n2nc(C(F)(F)F)cc2C2CC2)c(F)c1"
measured_quantity = "melting point"
result = "147 to 150 °C"

[[record]]
compound = "CCCc1c(CSc2nnc(SCCCC(=O)O)s2)ccc(C(C)=O)c1O"
measured_quantity = "melting point"
result = "75 to 78 °C"

[[record]]
compound = "O=C(NCCC1OCCO1)c1ccc[nH]1"
measured_quantity = "melting point"
result = "133 to 135 °C"

[[record]]
compound = "Nc1ccc(NC(=O)c2ccc(CNC(=O)OCc3cccnc3)cc2)cc1"
measured_quantity = "melting point"
result = "204 to 205 °C"

[[record]]
compound = "CCC(CC)c1ccc(Cl)c2nc(Oc3c(C)cc(Cl)cc3Cl)n(C)c12"
measured_quantity = "melting point"
result = "155 to 157 °C"

[[record]]
compound = "CCC(=O)CN1C(=O)C(NC(=O)Nc2cccc(C)c2)N=C(C)c2cccc(C)c21 (configuration not stated)"
measured_quantity = "melting point"
result = "125 to 128 °C"


Read the entry COc1c(Cl)ccc(-c2cc(N)c(Cl)c(C(=O)NOCc3cncs3)n2)c1F and write its reported melting point.
179 to 181 °C

Please list melting point recorded for the compound CC(C)c1ccc(NC(=O)Nc2cccc(C(=O)O)c2)cc1
295 to 300 °C

In one line, give reported melting point of the entry CC(C)n1nc(-c2c(Nc3ccccn3)nc(N)nc2-c2ccccc2)ccc1=O .
163 to 164 °C

Tell me melting point reported for N#CCC1CC(=O)N(c2ccc(F)cc2)C1=O (configuration not stated)
97 °C

Query melting point for O=[N+]([O-])c1ccc(Cl)c(NC(=S)NCCO)c1
158 °C

Give the measured melting point for CCC1CC(=O)N(CCc2ccc(NC(=O)c3cnccn3)cc2)N=C1c1ccc(OC)c(OC)c1 (configuration not stated)
202 °C

Return the recorded melting point value; entry: CN1C(=O)c2cc(N)ccc2Oc2ncccc21
158 to 160 °C

Determine its reported melting point: CCC(O)(C(=O)NC(C)c1ccccc1)c1cc2n(c(=O)c1CO)CCC21OCCO1 (configuration not stated)
115 to 116 °C

Give the reported melting point for this compound. COc1ccc(CC(=O)N2CCn3c(c(C(N)=O)c(Cl)c3-c3ccccc3)C2)cc1
146 to 148 °C

Answer with the recorded melting point of CCOC(=O)C(=O)Nc1c([N+](=O)[O-])cc(Br)c2ccccc12 only.
190 to 191 °C

Complete the entry with melting point for CC(C)COc1ccc(Br)cc1N(Cc1ccc(N(C)C)cc1)C(=O)C1CCCc2ccccc21 (configuration not stated)
176 to 178 °C

Provide measured melting point value, entry: COc1ccccc1OCCNCCCc1c[nH]c2ccccc12
101 to 102 °C
